- method_notes: physchem
- cond: octanol/buffer
Each record is given fulfilled if its reported logP is strictly below 5. Records at or above 5 are given not fulfilled.

Cc1cc(Cl)c(OCCOc2ccc(N3C(=O)CNC[C@@H]3C(=O)N(C)Cc3ccccc3)cc2)c(Cl)c1: fulfilled
Cc1cc(Cl)c(OCCOc2ccc(N3C(=O)CNC[C@@H]3C(=O)N(Cc3cccc(C)c3C)C3CC3)cc2)c(Cl)c1: not fulfilled
COc1ccccc1COCCCOc1ncc(N2C(=O)CNC[C@@H]2C(=O)N(Cc2cccc(C)c2C)C2CC2)cn1: fulfilled
O=C(OCc1ccc(N2C(=O)CNC[C@@H]2C(=O)N(Cc2cc(CNC3CC3)ccc2Cl)C2CC2)cc1)c1ccccc1: not fulfilled
Cc1cccc(CN(C(=O)[C@H]2CNCC(=O)N2c2ccc(COC(=O)c3ccccc3)cc2)C2CC2)c1C: fulfilled
O=C([C@H]1CNCC(=O)N1c1ccc(OCCCOCc2ccccc2)cc1)N(Cc1cc(CCNCC(F)F)ccc1Cl)C1CC1: not fulfilled
O=C([C@H]1CNCC(=O)N1c1ccc(CCCOc2cccc(Cl)c2)cc1)N(Cc1cc(CNCC(F)F)ccc1Cl)C1CC1: not fulfilled
COc1ccccc1COCCCOc1ncc(N2C(=O)CNC[C@@H]2C(=O)N(C)CCc2ccccc2)cn1: fulfilled
COC(=O)NCCc1ccc(Cl)c(CN(C(=O)[C@H]2CNCC(=O)N2c2ccc(OCCOc3c(Cl)cc(C)cc3Cl)nc2)C2CC2)c1: fulfilled
CCNC(=O)Cc1ccc(Cl)c(CN(C(=O)[C@H]2CNCC(=O)N2c2ccc(OCCOc3c(Cl)cc(C)cc3Cl)cc2)C2CC2)c1: not fulfilled
O=C(OCc1ccc(N2C(=O)CNC[C@@H]2C(=O)N(Cc2cc(CCNC3CC3)ccc2Cl)C2CC2)cc1)c1ccccc1: not fulfilled
CN(CCCc1ccccc1)C(=O)[C@H]1CNCC(=O)N1c1ccc(OCCCOCc2ccccc2)cc1: fulfilled
O=C([C@H]1CNCC(=O)N1c1ccc(OCCCOCc2ccccc2)cc1)N(Cc1cccc(Cl)c1Cl)C1CC1: not fulfilled
CNCCc1ccc(Cl)c(CN(C(=O)[C@H]2CNCC(=O)N2c2ccc(CCCOc3c(F)ccc(F)c3F)cc2)C2CC2)c1: not fulfilled

====

- method_notes: physchem
- cond: octanol/buffer
Listed here: items and their measured logP.
measurement_name: logP

O=C([C@H]1CNCC(=O)N1c1ccc(OCCCOCc2ccccc2)cc1)N(Cc1ccccc1Cl)C1CC1: 5.11
CN(Cc1ccccc1)C(=O)[C@H]1CNCC(=O)N1c1ccc(CCCOc2c(F)ccc(F)c2F)cc1: 4.49
Cc1cc(Cl)c(OCCOc2ccc(N3C(=O)CNC[C@@H]3C(=O)N(C)Cc3ccccc3Cl)cn2)c(Cl)c1: 4.35
COc1ccccc1COCCCOc1ccc(N2C(=O)CNC[C@@H]2C(=O)N(Cc2cc(CCNC(=O)CC(F)(F)F)ccc2Cl)C2CC2)cc1: 5.33
COCCCc1cc(CN(C(=O)[C@H]2CNCC(=O)N2c2ccc(CCCOc3c(F)ccc(F)c3F)cc2)C2CC2)c(Cl)cn1: 5.11
CN(CCc1ccccc1)C(=O)[C@H]1CNCC(=O)N1c1ccc(OCCCOCc2ccccc2)cc1: 3.95
COc1cccc(CN(C(=O)[C@H]2CNCC(=O)N2c2ccc(CCCOc3c(F)ccc(F)c3F)cc2)C2CC2)c1C: 5.39
CNC(=O)Cc1ccc(Cl)c(CN(C(=O)[C@H]2CNCC(=O)N2c2ccc(COC(=O)c3ccccc3)cc2)C2CC2)c1: 4.15
CNC(=O)OCc1ccc(Cl)c(CN(C(=O)[C@H]2CNCC(=O)N2c2ccc(OCCOc3c(Cl)cc(C)cc3Cl)nc2)C2CC2)c1: 4.75
COc1ccccc1COCCCOc1ccc(N2C(=O)CNC[C@@H]2C(=O)N(Cc2cccc(Cl)c2Cl)C2CC2)cc1: 5.65
CNC(=O)CCc1ccc(Cl)c(CN(C(=O)[C@H]2CNCC(=O)N2c2cnc(OCCCOCc3ccccc3OC)nc2)C2CC2)c1: 2.56
CC(=O)NCc1ccc(Cl)c(CN(C(=O)[C@H]2CNCC(=O)N2c2ccc(OCCOc3c(Cl)cc(C)cc3Cl)cc2)C2CC2)c1: 5.29
COCCCc1ccc(Cl)c(CN(C(=O)[C@H]2CNCC(=O)N2c2ccc(CCCOc3cccc(Cl)c3)cc2)C2CC2)c1: 6.56
CCNCc1ccc(Cl)c(CN(C(=O)[C@H]2CNCC(=O)N2c2ccc(CCCOc3cccc(Cl)c3)cc2)C2CC2)c1: 6.06
COCCCc1ccc(Cl)c(CN(C(=O)[C@H]2CNCC(=O)N2c2ccc(OCCOc3c(Cl)cc(C)cc3Cl)nc2)C2CC2)c1: 5.66
COc1ccccc1COCCCOc1ncc(N2C(=O)CNC[C@@H]2C(=O)N(Cc2cccc(OC)c2C)C2CC2)cn1: 2.71

====

- method_notes: physchem
- cond: octanol/buffer
Listed here: items and their measured logP.
measurement_name: logP

COCCCc1cc(CN(C(=O)[C@H]2CNCC(=O)N2c2ccc(OCCCOCc3ccccc3OC)cc2)C2CC2)c(Cl)c[n+]1[O-]: 4.66
O=C(OCc1ccc(N2C(=O)CNC[C@@H]2C(=O)N(Cc2cc(CNCC(F)F)ccc2Cl)C2CC2)cc1)c1ccccc1: 4.96
COCCCc1ccc(Cl)c(CN(C(=O)[C@H]2CNCC(=O)N2c2ccc(COC(=O)c3ccccc3)cc2)C2CC2)c1: 5.39
COc1ccccc1COCCCOc1ccc(N2C(=O)CNC[C@@H]2C(=O)N(Cc2cc(CNC(=O)C3CC3)ccc2Cl)C2CC2)cc1: 4.87

====

- method_notes: physchem
- cond: octanol/buffer
Listed here: items and their measured logP.
measurement_name: logP

COc1ccccc1COCCCOc1ccc(N2C(=O)CNC[C@@H]2C(=O)N(Cc2cc(CNC(C)=O)ccc2Cl)C2CC2)cc1: 4.52
CNC(=O)OCc1ccc(Cl)c(CN(C(=O)[C@H]2CNCC(=O)N2c2ccc(COC(=O)c3ccccc3)cc2)C2CC2)c1: 4.48
COCCCc1cc(CN(C(=O)[C@H]2CNCC(=O)N2c2ccc(CCCOc3cccc(Cl)c3)cc2)C2CC2)c(Cl)c[n+]1[O-]: 5.51
COc1ccccc1COCCCOc1ccc(N2C(=O)CNC[C@@H]2C(=O)N(Cc2cccc(C)c2C)C2CC2)cc1: 5.06
CNC(=O)OCc1ccc(Cl)c(CN(C(=O)[C@H]2CNCC(=O)N2c2ccc(CCCOc3cccc(Cl)c3)cc2)C2CC2)c1: 5.65
O=C([C@H]1CNCC(=O)N1c1ccc(OCCCOCc2ccccc2)cc1)N(Cc1cccc(Cl)c1)C1CC1: 5.14
CNC(=O)Cc1ccc(Cl)c(CN(C(=O)[C@H]2CNCC(=O)N2c2ccc(OCCCOCc3ccccc3OC)cc2)C2CC2)c1: 4.48
O=C(CC(F)(F)F)NCc1ccc(Cl)c(CN(C(=O)[C@H]2CNCC(=O)N2c2ccc(OCCCOCc3ccccc3)cc2)C2CC2)c1: 5.29
CCNCc1ccc(Cl)c(CN(C(=O)[C@H]2CNCC(=O)N2c2ccc(OCCCOCc3ccccc3)cc2)C2CC2)c1: 5.26
CC(=O)NCc1ccc(Cl)c(CN(C(=O)[C@H]2CNCC(=O)N2c2ccc(OCCCOCc3ccccc3)cc2)C2CC2)c1: 4.57
COCCCc1cc(CN(C(=O)[C@H]2CNCC(=O)N2c2ccc(OCCCOCc3ccccc3OC)cc2)C2CC2)c(Cl)cn1: 4.44
COCCCc1cc(CN(C(=O)[C@H]2CNCC(=O)N2c2ccc(OCCCOCc3ccccc3)cc2)C2CC2)c(Cl)c[n+]1[O-]: 4.71
Cc1cc(Cl)c(OCCOc2ccc(N3C(=O)CNC[C@@H]3C(=O)N(Cc3cccc(C)c3C)C3CC3)cc2)cc1C: 5.54
Cc1cc(Cl)c(OCCOc2ccc(N3C(=O)CNC[C@@H]3C(=O)N(Cc3cc(CNC(=O)CC(F)(F)F)ccc3Cl)C3CC3)cn2)c(Cl)c1: 5.19
O=C(Cc1ccc(Cl)c(CN(C(=O)[C@H]2CNCC(=O)N2c2ccc(CCCOc3cccc(Cl)c3)cc2)C2CC2)c1)NC1CC1: 5.98
O=C([C@H]1CNCC(=O)N1c1ccc(CCCOc2cccc(Cl)c2)cc1)N(Cc1cccc(Cl)c1)C1CC1: 5.94
CNCc1ccc(Cl)c(CN(C(=O)[C@H]2CNCC(=O)N2c2ccc(CCCOc3c(F)ccc(F)c3F)cc2)C2CC2)c1: 5.55
COC(=O)NCc1ccc(Cl)c(CN(C(=O)[C@H]2CNCC(=O)N2c2ccc(OCCCOCc3ccccc3OC)cc2)C2CC2)c1: 4.81
CNC(=O)OCc1ccc(Cl)c(CN(C(=O)[C@H]2CNCC(=O)N2c2ccc(OCCOc3c(Cl)cc(C)cc3Cl)cc2)C2CC2)c1: 5.58
O=C(CC(F)(F)F)NCc1ccc(Cl)c(CN(C(=O)[C@H]2CNCC(=O)N2c2ccc(COC(=O)c3ccccc3)cc2)C2CC2)c1: 4.92
Cc1cc(Cl)c(OCCOc2ccc(N3C(=O)CNC[C@@H]3C(=O)NCc3ccccc3)cn2)c(Cl)c1: 3.56
CNCCc1ccc(Cl)c(CN(C(=O)[C@H]2CNCC(=O)N2c2ccc(OCCOc3c(Cl)cc(C)cc3Cl)cc2)C2CC2)c1: 5.74
O=C(OCc1ccc(N2C(=O)CNC[C@@H]2C(=O)N(Cc2ccccc2Cl)C2CC2)cc1)c1ccccc1: 4.73
COc1ccccc1COCCCOc1ccc(N2C(=O)CNC[C@@H]2C(=O)N(Cc2cc(CCNC(=O)COC(C)(C)C)ccc2Cl)C2CC2)cc1: 5.61
Cc1cc(Cl)c(OCCOc2ccc(N3C(=O)CNC[C@@H]3C(=O)N(C)CCc3ccccc3)cn2)c(Cl)c1: 3.85
COc1ccccc1COCCCOc1ccc(N2C(=O)CNC[C@@H]2C(=O)N(Cc2cc(CNCC(F)F)ccc2Cl)C2CC2)cc1: 5.29
CNC(=O)OCc1ccc(Cl)c(CN(C(=O)[C@H]2CNCC(=O)N2c2ccc(OCCCOCc3ccccc3)cc2)C2CC2)c1: 4.85
COc1ccccc1COCCCOc1ccc(N2C(=O)CNC[C@@H]2C(=O)N(C)CCCc2ccccc2)cc1: 4.35
COCCc1ccc(Cl)c(CN(C(=O)[C@H]2CNCC(=O)N2c2ccc(COC(=O)c3ccccc3)cc2)C2CC2)c1: 4.95
CN(CCCc1ccccc1)C(=O)[C@H]1CNCC(=O)N1c1ccc(COC(=O)c2ccccc2)cc1: 4.02
